Target: ClbR (Escherichia coli Nissle 1917) (UniProt Q0P7J1)
Sequence: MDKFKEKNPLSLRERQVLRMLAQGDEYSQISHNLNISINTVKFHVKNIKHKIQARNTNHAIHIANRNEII
Assay: EMSA
Details: pH and temperature not stated
measurement_name: binding

input_sequence	assay_value
TGCTCATGGTAGTTACTCCTTTTCTTATCCTTTAAGGAATGGAATAAAAACCCCTGTTGACTTGGTGTTAGCGGTAACTGCTTACGCGTGTCCATCTTATTACATGGAAAATCTCCAGAGGTATTATCCATAACCATCACCTTATTATCGGATTTATAGATTATTTAACATGATTATTCTAAATGG (double strand) [probe 12 (clbB upstream, 186 bp)]	no binding
TGCGGATAGGTGTGCCATTTAGAATAATCATGTTAAATAATCTATAAATCCGATAATAAGGTGATGGTTATGGATAATACCTCTGGAGATTTTCCATGTAATAAGATGGACACGCGTAAGCAGTTACCGCTAACACCAAGTCAACAGGGGTTTTTATTCCATTCCTTAAAGGATAAGAAAAGGAGTAACTACCATGAGCA (double strand) [probe 11 (clbB upstream, 200 bp)]	no binding
